Target: NS3 protease (1-180) WT-NS4A peptide complex (Hepatitis C virus genotype 1b, UniProt Q9WMX2)
Construct: the NS3 protease (1–180) coding region for wild-type
Sequence (Q9WMX2 1027-1206, one chain of several): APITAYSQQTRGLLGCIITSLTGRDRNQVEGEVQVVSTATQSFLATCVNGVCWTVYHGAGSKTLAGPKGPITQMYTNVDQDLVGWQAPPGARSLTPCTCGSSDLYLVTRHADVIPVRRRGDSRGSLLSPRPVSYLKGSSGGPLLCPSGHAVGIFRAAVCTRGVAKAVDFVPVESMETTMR
Assay: In vitro enzyme assay, Ki, NS3 protease-NS4A peptide complex WT
pKi: −log10 of the molar value.

>  <chem-smiles>
COc1ccc2c(O[C@@H]3C[C@H]4C(=O)N[C@]5(C(=O)O)C[C@H]5/C=C\CCCCC[C@H](NC(=O)OC5CCCC5)C(=O)N4C3)cc(-c3csc(NC(C)C)n3)nc2c1

>  <pKi>
8.25

$$$$

---

Molecular target: NS3 protease (1-180) A156T-NS4A peptide complex (Hepatitis C virus genotype 1b, UniProt Q9WMX2, A1182T)
Construct: the NS3 protease (1–180) coding region for wild-type
Sequence (Q9WMX2 1027-1206 A1182T, one chain of several): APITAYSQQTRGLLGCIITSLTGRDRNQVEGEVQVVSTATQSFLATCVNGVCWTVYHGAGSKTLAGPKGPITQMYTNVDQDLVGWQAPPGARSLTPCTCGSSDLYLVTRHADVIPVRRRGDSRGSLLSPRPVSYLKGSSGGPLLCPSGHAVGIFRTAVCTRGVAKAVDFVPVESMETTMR
Test: In vitro enzyme assay, Ki, NS3 protease-NS4A peptide complex A156T
Settings: calculated Ki from IC50
pKi: −log10 of the molar value.

>  <compound>
COc1ccc2c(O[C@@H]3C[C@H]4C(=O)N[C@]5(C(=O)O)C[C@H]5/C=C\CCCCC[C@H](NC(=O)OC5CCCC5)C(=O)N4C3)cc(-c3csc(NC(C)C)n3)nc2c1 [inhibitor A]

>  <pKi>
6.10

$$$$
